The reported numbers originate from patent USRE36744E.

- procedure-summary: Comparative oral versus nasal pharmacokinetics of triazolam in beagle dogs (plasma, GC assay)
- run-conditions: dog, plasma, po, 1 mg, TMAX PO (MEAN), two 0.5 mg tablets; mean of four dogs; (min)
recorded-endpoint: Tmax (min)
Give your result in min as a bare value.

What Tmax value was documented for this molecule, Cc1nnc2n1-c1ccc(Cl)cc1C(c1ccccc1Cl)=NC2 [triazolam] ? 48.8

* * *

- procedure-summary: Comparative oral versus nasal pharmacokinetics of triazolam in beagle dogs (plasma, GC assay)
- run-conditions: dog, plasma, Time of peak mean plasma concentration, nasal, dogs, mean
recorded-endpoint: Tmax

What Tmax value was documented for this compound, Cc1nnc2n1-c1ccc(Cl)cc1C(c1ccccc1Cl)=NC2 [triazolam] ? ~18.8 min

* * *

- procedure-summary: Comparative oral versus nasal pharmacokinetics of midazolam in dogs (plasma, GC assay)
- Type: in vivo, beagle dogs
- run-conditions: dog, plasma, po, 5 mg, oral, 5 mg free base equivalent; mean of four dogs; head marked *; read-out: CMAX PO (MEAN)
recorded-endpoint: Cmax

What Cmax value was documented for this compound, Cc1ncc2n1-c1ccc(Cl)cc1C(c1ccccc1F)=NC2 ? 24.5 ng/mL

* * *

- procedure-summary: Comparative oral versus nasal pharmacokinetics of triazolam in beagle dogs (plasma, GC assay)
- run-conditions: dog, plasma, po, 1 mg, TMAX PO, two 0.5 mg tablets; individual dog; (min)
- Procedure: In two comparative studies separated in time by over one week; four healthy male, 2-3 year old beagle dogs received oral and nasal doses of triazolam. They were fasted overnight before each study and food was withheld until the end of the experiment. […] Using a metered dose inhaler, triazolam solution was sprayed into both nostrils of the dogs. The dose administered was determined by weighting the bottle containing the triazolam solution before and after spraying. […]
recorded-endpoint: Tmax (min)
Give your result in min as a bare value.

What Tmax value was documented for this molecule, Cc1nnc2n1-c1ccc(Cl)cc1C(c1ccccc1Cl)=NC2 [triazolam] ? 45

* * *

- procedure-summary: Comparative oral versus nasal pharmacokinetics of flurazepam in dogs (plasma, GC assay)
- Format: in vivo, beagle dogs
- run-conditions: dog, plasma, nasal spray, 12.1-14.5 mg as HCl; mean of four dogs; read-out: TMAX NASAL (MEAN) (converted)
recorded-endpoint: Tmax (min)
Give your result in min as a bare value.

What Tmax value was documented for this compound, CCN(CC)CCN1C(=O)CN=C(c2ccccc2F)c2cc(Cl)ccc21 [flurazepam] ? 15

* * *

- procedure-summary: Comparative oral versus nasal pharmacokinetics of triazolam in beagle dogs (plasma, GC assay)
- run-conditions: dog, plasma, TMAX NASAL, nasal spray, 0.9343-1.532 mg; individual dog; (min)
recorded-endpoint: Tmax

What Tmax value was documented for this molecule, Cc1nnc2n1-c1ccc(Cl)cc1C(c1ccccc1Cl)=NC2 [triazolam] ? 15 min

* * *

- procedure-summary: Comparative oral versus nasal pharmacokinetics of midazolam in dogs (plasma, GC assay)
- Type: in vivo, beagle dogs
- run-conditions: dog, plasma, nasal spray, 5.61-7.89 mg free base; mean of four dogs; read-out: TMAX NASAL (MEAN) (converted)
recorded-endpoint: Tmax

What Tmax value was documented for this molecule, Cc1ncc2n1-c1ccc(Cl)cc1C(c1ccccc1F)=NC2 ? 15 min

* * *

- procedure-summary: Comparative oral versus nasal pharmacokinetics of flurazepam in dogs (plasma, GC assay)
- Type: in vivo, beagle dogs
- run-conditions: dog, plasma, nasal spray, 12.1-14.5 mg as HCl; mean of four dogs; read-out: CMAX NASAL (MEAN)
recorded-endpoint: Cmax
Could you give the number and then its unit, please?

What Cmax value was documented for this compound, CCN(CC)CCN1C(=O)CN=C(c2ccccc2F)c2cc(Cl)ccc21 [flurazepam] ? 73.3 ng/mL

* * *

- procedure-summary: Comparative oral versus nasal pharmacokinetics of flurazepam in dogs (plasma, GC assay)
- Assay type: in vivo, beagle dogs
- run-conditions: dog, plasma, nasal spray, 12.1-14.5 mg as HCl; mean of four dogs; read-out: T1/2 NASAL (MEAN)
recorded-endpoint: half-life (h)
Give your result in h as a bare value.

What half-life value was documented for this compound, CCN(CC)CCN1C(=O)CN=C(c2ccccc2F)c2cc(Cl)ccc21 ? 2.8

* * *

- procedure-summary: Comparative oral versus nasal pharmacokinetics of midazolam in dogs (plasma, GC assay)
- Type: in vivo, beagle dogs
- run-conditions: dog, plasma, nasal spray, 5.61-7.89 mg free base; mean of four dogs; read-out: CMAX NASAL (MEAN)
recorded-endpoint: Cmax (ng/mL)
Give your result in ng/mL as a bare value.

What Cmax value was documented for this molecule, Cc1ncc2n1-c1ccc(Cl)cc1C(c1ccccc1F)=NC2 ? 101

* * *

- procedure-summary: Comparative oral versus nasal pharmacokinetics of triazolam in beagle dogs (plasma, GC assay)
- run-conditions: dog, plasma, po, 1 mg, Time of peak mean plasma concentration, dogs, mean
recorded-endpoint: Tmax

What Tmax value was documented for this compound, Cc1nnc2n1-c1ccc(Cl)cc1C(c1ccccc1Cl)=NC2 ? ~48.8 min

* * *

- procedure-summary: Comparative oral versus nasal pharmacokinetics of triazolam in beagle dogs (plasma, GC assay)
- run-conditions: dog, plasma, TMAX NASAL (MEAN), nasal spray, 0.9343-1.532 mg; mean of four dogs; (min)
recorded-endpoint: Tmax (min)
Give your result in min as a bare value.

What Tmax value was documented for this compound, Cc1nnc2n1-c1ccc(Cl)cc1C(c1ccccc1Cl)=NC2 ? 18.8

* * *

- procedure-summary: Comparative oral versus nasal pharmacokinetics of triazolam in beagle dogs (plasma, GC assay)
- run-conditions: dog, plasma, po, 1 mg, CMAX PO, two 0.5 mg tablets; individual dog; ng/ml
recorded-endpoint: Cmax
Could you give the number and then its unit, please?

What Cmax value was documented for this molecule, Cc1nnc2n1-c1ccc(Cl)cc1C(c1ccccc1Cl)=NC2 [triazolam] ? 7.6 ng/mL

* * *

- procedure-summary: Comparative oral versus nasal pharmacokinetics of triazolam in beagle dogs (plasma, GC assay)
- run-conditions: dog, plasma, T1/2 NASAL, nasal spray, 0.9343-1.532 mg; individual dog
recorded-endpoint: half-life

What half-life value was documented for this compound, Cc1nnc2n1-c1ccc(Cl)cc1C(c1ccccc1Cl)=NC2 ? 1.04 h

* * *

- procedure-summary: Comparative oral versus nasal pharmacokinetics of flurazepam in dogs (plasma, GC assay)
- Assay type: in vivo, beagle dogs
- run-conditions: dog, plasma, po, 15 mg, oral, 15 mg flurazepam HCl; mean of four dogs; read-out: TMAX PO (MEAN) (converted)
recorded-endpoint: Tmax
Could you give the number and then its unit, please?

What Tmax value was documented for this compound, CCN(CC)CCN1C(=O)CN=C(c2ccccc2F)c2cc(Cl)ccc21 ? 26.3 min

* * *

- procedure-summary: Comparative oral versus nasal pharmacokinetics of triazolam in beagle dogs (plasma, GC assay)
- run-conditions: dog, plasma, CMAX NASAL (MEAN), nasal spray, 0.9343-1.532 mg; mean of four dogs; ng/ml
recorded-endpoint: Cmax (ng/mL)
Give your result in ng/mL as a bare value.

What Cmax value was documented for this compound, Cc1nnc2n1-c1ccc(Cl)cc1C(c1ccccc1Cl)=NC2 [triazolam] ? 27.6

* * *

- procedure-summary: Comparative oral versus nasal pharmacokinetics of flurazepam in dogs (plasma, GC assay)
- Type: in vivo, beagle dogs
- run-conditions: dog, plasma, nasal spray, 12.1-14.5 mg as HCl; individual dog; read-out: TMAX NASAL (converted)
recorded-endpoint: Tmax (min)
Give your result in min as a bare value.

What Tmax value was documented for this compound, CCN(CC)CCN1C(=O)CN=C(c2ccccc2F)c2cc(Cl)ccc21 ? 15

* * *

- procedure-summary: Comparative oral versus nasal pharmacokinetics of triazolam in beagle dogs (plasma, GC assay)
- run-conditions: dog, plasma, T1/2 NASAL (MEAN), nasal spray, 0.9343-1.532 mg; mean of four dogs
recorded-endpoint: half-life (min)
Give your result in min as a bare value.

What half-life value was documented for this compound, Cc1nnc2n1-c1ccc(Cl)cc1C(c1ccccc1Cl)=NC2 [triazolam] ? 57.3

* * *

- procedure-summary: Comparative oral versus nasal pharmacokinetics of triazolam in beagle dogs (plasma, GC assay)
- run-conditions: dog, plasma, CMAX NASAL, nasal spray, 0.9343-1.532 mg; individual dog; ng/ml
recorded-endpoint: Cmax
Could you give the number and then its unit, please?

What Cmax value was documented for this compound, Cc1nnc2n1-c1ccc(Cl)cc1C(c1ccccc1Cl)=NC2 ? 27.2 ng/mL

* * *

- procedure-summary: Comparative oral versus nasal pharmacokinetics of midazolam in dogs (plasma, GC assay)
- Assay type: in vivo, beagle dogs
- run-conditions: dog, plasma, nasal spray, 5.61-7.89 mg free base; mean of four dogs; read-out: T1/2 NASAL (MEAN)
recorded-endpoint: half-life (min)
Give your result in min as a bare value.

What half-life value was documented for this compound, Cc1ncc2n1-c1ccc(Cl)cc1C(c1ccccc1F)=NC2 ? 33.3

* * *

- procedure-summary: Comparative oral versus nasal pharmacokinetics of midazolam in dogs (plasma, GC assay)
- Type: in vivo, beagle dogs
- run-conditions: dog, plasma, nasal spray, 5.61-7.89 mg free base; individual dog; read-out: T1/2 NASAL
recorded-endpoint: half-life (min)
Give your result in min as a bare value.

What half-life value was documented for this molecule, Cc1ncc2n1-c1ccc(Cl)cc1C(c1ccccc1F)=NC2 [midazolam] ? 36.1
